recorded endpoint: melting point

molecule	melting point
CC(=O)[C@H]1CC[C@H]2[C@@H]3CC[C@H]4C[C@H](N=[N+]=[N-])CC[C@]4(C)[C@H]3CC[C@]12C	159 to 162 °C
C=C=CC(O)[C@H]1CC[C@H]2[C@@H]3CC[C@H]4CC(O)CC[C@]4(C)[C@H]3CC[C@]12C (mixture of isomers) [17β-(1-hydroxy-2,3-butadienyl)-5α-androstane-3ol (mixture of C-20 epimers)]	174 to 177 °C
C[C@]12CC[C@@H](N=[N+]=[N-])C[C@@H]1CC[C@@H]1[C@@H]2CC[C@]2(C)[C@@H](C(=O)CN=[N+]=[N-])CC[C@@H]12	133 to 135 °C
C[C@]12CC[C@@H](N=[N+]=[N-])C[C@@H]1CC[C@@H]1[C@@H]2CC[C@]2(C)[C@@H](C(=O)CBr)CC[C@@H]12	108 to 110 °C

Proceeding to the next molecule to report its melting point.
Form field: reported melting point of Cc1ccc(C#C[C@H]2CC[C@H]3[C@@H]4CC[C@H]5C[C@H](O)CC[C@]5(C)[C@H]4CC[C@]23C)cc1
178 to 180 °C
